Source of measurements: PubChem BioAssay (NCI)

TGI reference
tested on: NCI-H522 lung; test: NCI tumour cell line growth inhibition, 48 h

compound: CC1=C(C(=O)N(C)c2ccc(Cl)c(C(=O)OC(C)C)c2)SCCO1
TGI: > 100 µM

In: I would be grateful if you could share the reported TGI for CCC1NC(N=Nc2ccc([N+](=O)[O-])cc2)(P(=O)(OC(C)C)OC(C)C)OC1=O (centres undefined) .
Out: > 100 µM

In: Which TGI value is on record for N#Cc1c(O)c(/C=N/c2ncccn2)c(=O)n2c1[nH]c1ccccc12 ?
Out: > 100 µM

In: What value of TGI has been recorded for this entry: CN(C)C(=O)c1cnc2oc3ccc(O)cc3c2c1-c1ccccc1
Out: > 25 µM

In: Which measured TGI value corresponds to CCc1ccc2c(c1)C(=O)c1c-2n(CCCN=[N+]=[N-])c(=O)c2cc(OC)c(OC)cc12 ?
Out: > 100 µM

In: Look up TGI: Cc1ccc2c(/C=C/c3ccc(N(C)C)cc3)ccc(C(C)C)cc1-2
Out: > 100 µM

In: Look up TGI for this compound: O=c1cc(-c2ccccc2)[nH]c2nccn12
Out: > 10 µM

In: Give its TGI value. Item: NCCN.O=C([O-])CN1CCOCC1.[OH-].[Pt+4]
Out: > 100 µM

In: What value of TGI has been recorded for this entry: Cc1nc2sccn2c1/C=C1/C(=O)Nc2cccc(Cl)c21
Out: > 100 µM
